molecular target: cynomolgus monkey C17,20 lyase (Macaca fascicularis); construct: microsomes were isolated from human, cynomolgus monkey, dog, rat or athymic nude mouse testicular tissue; experiment: Inhibition of cynomolgus monkey steroid C17,20 lyase (testicular microsomes), time dependent, Kitz-Wilson
Sequence (Q2XVA1 whole entry): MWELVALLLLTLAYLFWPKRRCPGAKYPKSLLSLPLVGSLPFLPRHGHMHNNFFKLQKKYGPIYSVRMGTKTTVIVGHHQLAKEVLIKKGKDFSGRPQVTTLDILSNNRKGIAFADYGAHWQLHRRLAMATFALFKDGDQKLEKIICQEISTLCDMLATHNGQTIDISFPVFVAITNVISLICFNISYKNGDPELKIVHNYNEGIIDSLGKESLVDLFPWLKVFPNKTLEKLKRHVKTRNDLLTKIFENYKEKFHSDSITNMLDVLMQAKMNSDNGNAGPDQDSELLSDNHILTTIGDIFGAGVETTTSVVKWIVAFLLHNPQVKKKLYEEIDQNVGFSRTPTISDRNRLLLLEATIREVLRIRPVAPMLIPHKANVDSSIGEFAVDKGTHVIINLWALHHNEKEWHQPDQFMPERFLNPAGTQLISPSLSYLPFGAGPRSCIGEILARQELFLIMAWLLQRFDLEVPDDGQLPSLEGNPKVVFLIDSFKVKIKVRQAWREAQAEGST
As shown below, each of these compounds has a reported Ki value.
READOUT_NAME: Ki (nM)

[[record]]
structure_as_smiles = "C[C@]12CC[C@H]3[C@@H](CCC4=C(N)C(=O)CC[C@@]43C)[C@@H]1CC[C@@H]2OC1CC1"
target_system = "cynomolgus monkey C17,20 lyase (Macaca fascicularis)"
value_reported = 286

[[record]]
structure_as_smiles = "C[C@]12CC[C@H]3[C@@H](C=CC4=C(N)C(=O)CC[C@@]43C)[C@@H]1CC[C@@H]2OC1CC1"
target_system = "cynomolgus monkey C17,20 lyase (Macaca fascicularis)"
value_reported = 339

